Target: δ-receptor ((3H)-DADL binding site) (Rattus norvegicus)
Sequence (P33533 whole entry): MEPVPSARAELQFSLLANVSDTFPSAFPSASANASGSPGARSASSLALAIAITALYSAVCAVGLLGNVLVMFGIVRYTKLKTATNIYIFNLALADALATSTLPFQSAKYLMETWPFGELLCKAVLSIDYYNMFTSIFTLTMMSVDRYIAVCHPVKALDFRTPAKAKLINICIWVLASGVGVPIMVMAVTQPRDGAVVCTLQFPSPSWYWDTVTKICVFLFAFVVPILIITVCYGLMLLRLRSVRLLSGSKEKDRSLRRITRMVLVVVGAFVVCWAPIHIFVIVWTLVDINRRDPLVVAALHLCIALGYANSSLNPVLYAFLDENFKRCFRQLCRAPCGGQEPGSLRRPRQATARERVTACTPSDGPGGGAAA
Test: (3H)-DADL binding assay, rat brain homogenates
Conditions: duplicate determination, one site model, EBDA/LIGAND
Peptide text beside a SMILES is read from it.
measured quantity: pKi
Answers are plain numbers, as −log10 of the molar value.

The compound CC(C)C[C@H](NC(=O)[C@H](CC(C)C)NC(=O)CNC(=O)[C@@H](N)Cc1ccc(O)cc1)C(=O)O [Tyr--Gly--Leu--Leu, Tyr-Gly-Leu-Leu] (H-YGLL-OH) showed pKi equal to 4.62

* * *

Biological target: μ-receptor (Rattus norvegicus, UniProt P33535)
Sequence (P33535 whole entry): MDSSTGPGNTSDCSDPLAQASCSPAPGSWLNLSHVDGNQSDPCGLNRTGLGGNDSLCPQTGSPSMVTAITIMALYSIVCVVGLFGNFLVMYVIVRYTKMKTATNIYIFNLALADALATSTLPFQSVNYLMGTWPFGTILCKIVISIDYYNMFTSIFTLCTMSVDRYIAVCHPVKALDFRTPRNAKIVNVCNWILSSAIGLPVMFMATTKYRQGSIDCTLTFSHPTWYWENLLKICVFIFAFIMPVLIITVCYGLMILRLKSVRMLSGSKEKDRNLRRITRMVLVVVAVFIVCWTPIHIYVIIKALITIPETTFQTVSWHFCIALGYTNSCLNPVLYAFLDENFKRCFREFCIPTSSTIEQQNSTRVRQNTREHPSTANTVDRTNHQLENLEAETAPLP
Assay: (3H)-DAMGO displacement receptor assay
Settings: displacement of (3H)-DAMGO specific binding, radioligand about 24 x 10^-10 M; LIGAND program
Bridge positions count the residues as written; N and C are the ends. Square brackets hold non-standard residues; d marks the D form. Peptide text beside a SMILES is read from it.
Rule: IC50 below 0.1 nM gives MET, anything at or above gives NOT MET.

CSCC[C@H](NC(=O)[C@H](Cc1ccccc1)NC(=O)[C@@H](C)NC(=O)[C@@H](N)Cc1ccc(O)cc1)C(N)=O [Tyr-D-Ala-Phe-Met-NH2, reference compound] (H-Y[dA]FM-NH2)	NOT MET
CC(C)C[C@@H]1NC(=O)[C@H](Cc2ccccc2)NC(=O)[C@@H](NC(=O)[C@@H](N)Cc2ccc(O)cc2)CSSC[C@@H](C(=O)O)NC1=O (H-YCFLC-OH; disulfide 2-5)	NOT MET
CC(C)C[C@H](NC(=O)[C@H](Cc1ccccc1)NC(=O)[C@@H](C)NC(=O)[C@@H](N)Cc1ccc(O)cc1)C(=O)N[C@@H](CCC(=O)O)C(=O)O [Tyr-D-Ala-Phe-Leu-Glu] (H-Y[dA]FLE-OH)	MET

[ask] Is IC50 strictly under 0.1 nM for the entry CC(C)C[C@@H]1NC(=O)[C@H](Cc2ccccc2)NC(=O)[C@@H](NC(=O)[C@@H](N)Cc2ccc(O)cc2)CCCCNC(=O)[C@H](CCC(=O)O)NC1=O (H-YKFLE; lactam 2-C) ?
[reply] MET

* * *

Target: μ-receptor ((3H)-DAGO binding site) (Rattus norvegicus)
Construct: from tissue; host or cells: rat brain (homogenate / synaptic plasma membranes, whole brain without cerebellum)
Experiment: (3H)-DAGO binding assay, rat brain homogenates
Details: duplicate determination, one site model, EBDA/LIGAND
Ends that are not written are not given here.
measured quantity: Ki

The substance YPFVE [Tyr--Pro--Phe--Val--Glu, Tyr-Pro-Phe-Val-Glu, reference compound] showed Ki equal to 8.9 µM

* * *

Target: μ-receptor (Rattus norvegicus)
Construct: from tissue; host or cells: rat brain (homogenate / synaptic plasma membranes, whole brain without cerebellum)
Experiment: (3H)-DAMGO displacement receptor assay
Format: binding
Settings: displacement of (3H)-DAMGO specific binding, radioligand about 24 x 10^-10 M; LIGAND program
Ends that are not written are not given here.
Please provide measured pIC50 for the entries that follow.
Answers are plain numbers, as −log10 of the molar value.

YPFLE [Tyr-Pro-Phe-Leu-Glu]	10.62

The substance YSFLE-NH2 [Tyr-Ser-Phe-Leu-Glu-NH2] showed pIC50 equal to 8.59
